The origin of these recorded values is the supplement of paper PMC13094657.

- Tested on: MDA-MB-231
- protocolText: kynurenine production, fold change vs DMSO IFNg/TNF control; higher = more kynurenine produced (less inhibition)
- runConditions: pre-treatment time: 18 h then 24 h IFNg/TNF
Kindly return label 1 if reported kynurenine production is no lower than 0.7; return label 0 if it is lower.

• C[C@@H]1CC[C@]2(C(=O)O)CC[C@]3(C)C(=CCC4[C@@]5(C)CC[C@H](O[C@@H]6OC[C@H](O)[C@H](O)[C@H]6O)C(C)(C)C5CC[C@]43C)[C@@H]2[C@]1(C)O (some centres not stated) [Ziyuglycoside II] (compound dose: 10 uM) = label 0
• COC(=O)C1=CO[C@@H](O[C@@H]2O[C@H](CO)[C@@H](O)[C@H](O)[C@H]2O)[C@H]2[C@@H]1C(=O)C[C@@H]2C [Verbenalin] (compound dose: 10 uM) = label 1
• CC1(C)CCC2(CO)C(=C3C=CC4C5(C)CCC(OC6OC(COC7OC(CO)C(O)C(O)C7O)C(OC7OC(CO)C(O)C(O)C7O)C(O)C6O)CC5C(C)(CO)CC4(C)C3(C)CC2O)C1 (configuration not stated) [Clinodiside A] (compound dose: 10 uM) = label 1
• C[C@@H]1O[C@@H](O[C@H]2[C@H](OC(=O)[C@]34CCC(C)(C)C[C@H]3C3=CC[C@@H]5[C@@]6(C)C[C@H](O)[C@H](O[C@@H]7O[C@H](CO)[C@@H](O)[C@H](O)[C@H]7O)[C@@](C)(CO)[C@@H]6CC[C@@]5(C)[C@]3(C)C[C@H]4O)OC[C@H](O)[C@@H]2O)[C@H](O)[C@H](O)[C@H]1O[C@@H]1OC[C@@H](O)[C@H](O[C@@H]2OC[C@](O)(CO)[C@H]2O)[C@H]1O [Polygalacin D] (compound dose: 10 uM) = label 0
• C[C@@H]1O[C@@H](O[C@H]2[C@H](OC(=O)[C@]34CCC(C)(C)C[C@H]3C3=CC[C@@H]5[C@@]6(C)C[C@H](O)[C@H](O[C@@H]7O[C@H](CO)[C@@H](O)[C@H](O[C@@H]8O[C@H](CO)[C@@H](O)[C@H](O)[C@H]8O)[C@H]7O)C(CO)(CO)[C@@H]6CC[C@@]5(C)[C@]3(C)C[C@H]4O)OC[C@H](O)[C@@H]2O)[C@H](O)[C@H](O)[C@H]1O[C@@H]1OC[C@@H](O)[C@H](O[C@@H]2OC[C@](O)(CO)[C@H]2O)[C@H]1O [Platycodin D2] (compound dose: 10 uM) = label 0

Now examine the next entry.
INPUT: Given O=c1cc(-c2ccc(O)cc2)oc2cc(O)cc(O)c12 [Apigenin] (compound dose: 10 uM) , state whether its kynurenine production is at least 0.7.
OUTPUT: label 1
